Tested on: MS2 coat protein
Test: apparent KD of MS2 coat protein; designed switch direction (-1 OFF switch, 1 ON switch): 1; higher = weaker reporter binding
Run conditions: input ligand: none

[
  {
    "Record sequence": "AGCUUGUGGGUAGGAUAUUUAGGAUAUGCGGAAGACUAAGUCUGUAGGUCACCUAACGCAGAAGGAGAGAAGGACCCUUCAGCA [pwkr ssNG2 2FMN + F9.30] (Eterna round: R96, puzzle: Same State NG 2)",
    "Target system": "MS2 coat protein",
    "Unit symbol": "nM",
    "apparent KD of MS2 coat protein": 91.3
  },
  {
    "Record sequence": "GCUAGAAAUAAAGCCAACAUGAGGAUCACCCAUGUAUGUUGGUAGGAUAUCGUAUGCAAAGCAUACGAGAAGGGCUAAACUAGC [Mat - Same State NG 3 - JL Mod - D18] (Eterna round: R96, puzzle: Same State NG 3)",
    "Target system": "MS2 coat protein",
    "Unit symbol": "nM",
    "apparent KD of MS2 coat protein": 93.7
  },
  {
    "Record sequence": "GUGGCGGGUUGAGGAUAUUGGUUGCCGCUGUUUUACAUGAGGAUCACCCAUGUGGGUUGCGGUUUCGAGAAGGGAGGUUGCUGG [salish99_SSNG2_r04_055] (Eterna round: R96, puzzle: Same State NG 2)",
    "Target system": "MS2 coat protein",
    "Unit symbol": "nM",
    "apparent KD of MS2 coat protein": 17.6
  },
  {
    "Record sequence": "AGGGAGGAUGCAGGAUAUAUAAGACAUGAGGAUCACCCAUGUACCUCGUGGAGAAGAAAGGAGAGAUAGAAGGGUAGAGAGGAA [Default title] (Eterna round: R96, puzzle: Same State NG 2)",
    "Target system": "MS2 coat protein",
    "Unit symbol": "nM",
    "apparent KD of MS2 coat protein": 255
  }
]
